Listing of recorded pEC50 by entry.
ASSAYED_SYSTEM: GCase (Homo sapiens)
Construct: endogenous in cells; host or cells: HeLa cells
TEST_DETAILS: activation of GCase in a live cell PFB assay in HELA cells
Format: cell-based
EXPERIMENTAL_PARAMETERS: activation of GCase, EC50 ranges
Description: Exemplary compounds were evaluated for activation of GCase in a live cell PFB assay in HELA cells (essentially as described in Ysselstein et al., “LRRK2 kinase activity regulates lysosomal glucocerebrosidase in neurons derived from Parkinson's disease patients” Nature Communications (2019) 10:5570). […] EC50 ranges: A: <10 μM; B: >10-50 μM; C: >50-100 μM; D: >100 μM.
pEC50: −log10 of the molar value.

O=C1N(c2ccc(C(F)(F)F)nc2)C(=O)C2(CCN(c3cnc4cnn(CC(F)F)c4n3)CC2)N1CCC1CC1 [Cmpd 880]    > 5.00
Fc1ccc(F)c(OC2CC3(CCCN(c4cnc5cnn(CC(F)(F)F)c5n4)C3)C2)c1 (centres unmarked) [Compound 30]    4.30 to 5.00
FC(F)Cn1ncc2ncc(N3CCC4(CN(c5ccc(OCC(F)(F)F)nc5)C4)C3)nc21 [Cmpd 436]    4.30 to 5.00
FC(F)Cn1ncc2ncc(N3CCC4(CCN(c5ccnc(OCC(F)(F)F)n5)C4)CC3)nc21 [Cmpd 738]    > 5.00

Next compound, please.
Q. Give pEC50 (GCase (Homo sapiens)) of the following compound: FC(F)Cn1ncc2ncc(N3CC4(CCN(c5cccnc5C(F)(F)F)CC4)C3)nc21 [Compound 129]
A. 4.30 to 5.00

----------
Listing of recorded pEC50 by entry.
ASSAYED_SYSTEM: GCase (Homo sapiens, UniProt P04062)
Construct: endogenous in cells; host or cells: HeLa cells
Sequence (P04062 40-536): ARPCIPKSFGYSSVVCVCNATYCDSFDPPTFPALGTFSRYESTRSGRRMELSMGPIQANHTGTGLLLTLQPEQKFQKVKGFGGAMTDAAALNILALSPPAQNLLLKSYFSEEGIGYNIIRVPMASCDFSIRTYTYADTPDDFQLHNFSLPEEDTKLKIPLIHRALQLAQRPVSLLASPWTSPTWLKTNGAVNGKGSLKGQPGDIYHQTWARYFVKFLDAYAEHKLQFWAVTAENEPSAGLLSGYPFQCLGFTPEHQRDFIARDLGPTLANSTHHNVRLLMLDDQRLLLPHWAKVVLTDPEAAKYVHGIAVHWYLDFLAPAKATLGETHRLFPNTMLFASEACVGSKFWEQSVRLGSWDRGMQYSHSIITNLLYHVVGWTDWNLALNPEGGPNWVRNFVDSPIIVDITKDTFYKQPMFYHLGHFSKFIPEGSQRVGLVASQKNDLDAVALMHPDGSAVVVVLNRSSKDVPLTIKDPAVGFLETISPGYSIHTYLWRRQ
TEST_DETAILS: activation of GCase in a live cell PFB assay in HELA cells
Assay type: cell-based
EXPERIMENTAL_PARAMETERS: EC50 given as range classes
pEC50: −log10 of the molar value.

Cn1c(N2CC3(CC2=O)CN(c2ccnc(C(F)(F)F)c2)C3)nc2c(cnn2CC(F)F)c1=O [Cmpd 998]    4.30 to 5.00
O=S(=O)(c1ccc(Cl)cc1)N1CC2(CCN(c3cnc4cnn(CC(F)F)c4n3)C2)C1 [Cmpd 386]    4.30 to 5.00
CCn1c(=O)n(C2COC2)c2ncc(N3CCC4(CN(c5ccnc(C(F)(F)F)c5)C4)C3)nc21 [Cmpd 982]    4.30 to 5.00

Q. Value lookup for pEC50; key = O=C1N(c2ncc3cnn(C4COC4)c3n2)CCC12CN(c1ccnc(C(F)(F)F)c1)C2 [Cmpd 1004]
A. 4.30 to 5.00

Q. Value lookup for pEC50; key = O=C1CC2(CCN(c3cnc4cnn(CC(F)F)c4n3)CC2)CN1Cc1ccc(Cl)cc1F [Cmpd 421]
A. > 5.00

Q. Value lookup for pEC50; key = Cc1nc(N2CCC3(C2)CN(c2cnc4c(C)nn(CC(F)F)c4n2)C3)cc(C(F)(F)F)n1 [Cmpd 578]
A. 4.30 to 5.00

Q. Value lookup for pEC50; key = FC(F)Cn1ncc2ncc(N3CC4(CCN(c5ccc(C(F)(F)F)cn5)C4)C3)nc21 [Compound 182]
A. > 5.00

Q. Value lookup for pEC50; key = FC(F)Cn1ncc2ncc(N3CCCC4(CCN(c5cc(C(F)(F)F)ccn5)CC4)C3)nc21 [Cmpd 217]
A. 4.30 to 5.00

Measured values drawn from patent US20250034170A1 for this set.
